- experimentalConditions: 283.15 K; 101.33 kPa; Liquid; Parallel plate method
outcomeMeasure: thermal conductivity (W/m/K)
Numeric only. Scale: W/m/K

{"compound": "CCCCCCCCCCn1cc[n+](C)c1.N#C[B-](C#N)(C#N)C#N [1-decyl-3-methyl-1H-imidazolium tetracyanoborate]", "thermal conductivity, W/m/K": 0.1665}
{"compound": "CCn1cc[n+](C)c1.N#C[C-](C#N)C#N [1-ethyl-3-methyl-1H-imidazolium tricyanomethanide]", "thermal conductivity, W/m/K": 0.1966}
{"compound": "CCCCCCCCn1cc[n+](C)c1.N#CC(=C=[N-])C#N [1-methyl-3-octylimidazolium tricyanomethanide]", "thermal conductivity, W/m/K": 0.1717}

Item under review: CCCCCCCCCC[n+]1ccn(C)c1.N#C[C-](C#N)C#N [3-decyl-1-methylimidazolium tricyanomethanide] . Reported thermal conductivity? 0.168

Item under review: CCCCn1cc[n+](C)c1.N#C[B-](C#N)(C#N)C#N [1-butyl-3-methyl-1H-imidazolium tetracyanoborate] . Reported thermal conductivity? 0.178

Item under review: CCCCCCn1cc[n+](C)c1.N#C[B-](C#N)(C#N)C#N [1-hexyl-3-methylimidazolium tetracyanoborate] . Reported thermal conductivity? 0.1762

Item under review: CCCCCC[n+]1ccn(C)c1.N#C[C-](C#N)C#N [3-hexyl-1-methylimidazolium tricyanomethanide] . Reported thermal conductivity? 0.1817

Item under review: CCCCCCCCn1cc[n+](C)c1.N#C[B-](C#N)(C#N)C#N [1-methyl-3-octylimidazolium tetracyanoborate] . Reported thermal conductivity? 0.1703

###

- experimentalConditions: 363.15 K; 101.33 kPa; Liquid; Vibrating tube method
Below, each entry is listed alongside its reported mass density.
Numeric only. Scale: kg/m3

{"molecule": "CCCCn1cc[n+](C)c1.N#C[B-](C#N)(C#N)C#N [1-butyl-3-methyl-1H-imidazolium tetracyanoborate]", "numericResult": 962.8}
{"molecule": "CCCCCCCCCC[n+]1ccn(C)c1.N#C[C-](C#N)C#N [3-decyl-1-methylimidazolium tricyanomethanide]", "numericResult": 943.13}
{"molecule": "CCCCCCCCCCn1cc[n+](C)c1.N#C[B-](C#N)(C#N)C#N [1-decyl-3-methyl-1H-imidazolium tetracyanoborate]", "numericResult": 919.14}

Item under review: CCCCCC[n+]1ccn(C)c1.N#C[C-](C#N)C#N [3-hexyl-1-methylimidazolium tricyanomethanide] . Reported mass density? 978.98

Item under review: CCCCCCCCn1cc[n+](C)c1.N#C[B-](C#N)(C#N)C#N [1-methyl-3-octylimidazolium tetracyanoborate] . Reported mass density? 930.84

Item under review: CCn1cc[n+](C)c1.N#C[C-](C#N)C#N [1-ethyl-3-methyl-1H-imidazolium tricyanomethanide] . Reported mass density? 1036.58

Item under review: CCCCCCCCn1cc[n+](C)c1.N#CC(=C=[N-])C#N [1-methyl-3-octylimidazolium tricyanomethanide] . Reported mass density? 959.82

###

- experimentalConditions: 328.15 K; 101.33 kPa; Liquid; Vibrating tube method
Below, each entry is listed alongside its reported mass density.
Numeric only. Scale: kg/m3

Some solved cases for reference:
{"compound": "CCCCn1cc[n+](C)c1.N#C[B-](C#N)(C#N)C#N [1-butyl-3-methyl-1H-imidazolium tetracyanoborate]", "numericResult": 987.71}
{"compound": "CCCCCCCCCCn1cc[n+](C)c1.N#C[B-](C#N)(C#N)C#N [1-decyl-3-methyl-1H-imidazolium tetracyanoborate]", "numericResult": 942.19}

Item under review: CCCCCCCCn1cc[n+](C)c1.N#CC(=C=[N-])C#N [1-methyl-3-octylimidazolium tricyanomethanide] . Reported mass density? 981.5

Item under review: CCCCCC[n+]1ccn(C)c1.N#C[C-](C#N)C#N [3-hexyl-1-methylimidazolium tricyanomethanide] . Reported mass density? 1001.14

Item under review: CCn1cc[n+](C)c1.N#C[C-](C#N)C#N [1-ethyl-3-methyl-1H-imidazolium tricyanomethanide] . Reported mass density? 1060.29

Item under review: CCCCCCCCn1cc[n+](C)c1.N#C[B-](C#N)(C#N)C#N [1-methyl-3-octylimidazolium tetracyanoborate] . Reported mass density? 954.34

Item under review: CCCCCCCCCC[n+]1ccn(C)c1.N#C[C-](C#N)C#N [3-decyl-1-methylimidazolium tricyanomethanide] . Reported mass density? 964.44
